Field: GI50. Provide a value for each of the compounds that follow.
- Test system: K562
- EXPERIMENTAL_PROTOCOL: NCI tumour cell line growth inhibition, 48 h
Activity calls are given as the source filed them. Cut-off read from the data, not from the text of the source: active = GI50 up to about 1.1 µM and inactive = higher.

{"COMPOUND": "COc1ccc(OC)c(CCc2cc(OC)ccc2OC)c1", "GI50": "0.912 µM (active)"}
{"COMPOUND": "Oc1c(O)c(Cc2ccccc2)c(Cc2ccccc2)c(Cc2ccccc2)c1Cc1ccccc1", "GI50": "> 10 µM (inactive)"}

For every listed record, write down its GI50.
1. CC1CN1C(=O)NCCCCCCNC(=O)N1CC1C (stereo not given)
2. COC1/C=C/O[C@@]2(C)Oc3c(C)c(O)c4c(O)c(cc(O)c4c3C2=O)NC(=O)/C(C)=C\C=C\[C@H](C)C(O)[C@@H](C)[C@@H](O)[C@@H](C)[C@H](OC(C)=O)[C@@H]1C (stereo not given in full)
3. O=CN/C=C/c1ccccc1O

RESULT:
> 97.5 µM (inactive)
9.89 µM (inactive)
> 31.6 µM (inactive)

---

- Tested on: SF-268
- EXPERIMENTAL_PROTOCOL: NCI tumour cell line growth inhibition, 48 h
Activity calls are given as the source filed them. Rule as the data show it: active = GI50 up to about 1.1 µM and inactive = higher.
ASSAY_READOUT: GI50

{"COMPOUND": "c1csc(-c2ccsc2-c2ccsc2)c1", "READOUT_VALUE": "92.5 µM (inactive)"}
{"COMPOUND": "COc1ccc(S(=O)(=O)N/N=C/CN2C(=O)c3ccccc3C2=O)cc1OC", "READOUT_VALUE": "> 100 µM (inactive)"}
{"COMPOUND": "Cc1n[nH]c(=O)n1/N=C/c1cccc(Cl)c1", "READOUT_VALUE": "63.7 µM (inactive)"}
{"COMPOUND": "CO[C@@H]1C[C@H]2[C@@H]3CC[C@H]([C@H](C)CO)[C@@]3(C)CC[C@@H]2[C@@]2(C)CC[C@H]3C[C@]312", "READOUT_VALUE": "35.7 µM (inactive)"}
{"COMPOUND": "O=C1CS(=O)(=O)C(c2cccc(Oc3ccccc3)c2)N1c1ccccc1 (stereo not drawn)", "READOUT_VALUE": "23.7 µM (inactive)"}

For every listed record, write down its GI50.
1. O=C1C=CC[C@H](/C=C/C[C@@H](O)C[C@H](O)/C=C/c2ccccc2)O1
2. OCCNCNc1nc(NCNCCO)nc(N(CNCCO)CNCCO)n1
3. COC1OC(C)C(OC(=O)C(C)(C)C)C(OS(=O)(=O)c2ccc(C)cc2)C1OS(=O)(=O)c1ccc(C)cc1 (stereo not drawn)
4. O=S(=O)(O)c1ccc(Nc2ccnc3ccccc23)cc1
5. O=C(OCc1ccccc1)C(Cc1ccc(OCc2ccccc2)cn1)NC(=O)C(F)(F)F (stereo not drawn)

RESULT:
["21.8 µM (inactive)", "23.7 µM (inactive)", "> 100 µM (inactive)", "> 100 µM (inactive)", "98.2 µM (inactive)"]

For every listed record, write down its GI50.
1. COc1ccc2c(c1)CC[C@@H]1[C@@H]2CC[C@]2(C)/C(=N/OCCN3CCCC3)CC[C@@H]12
2. CCOC(=O)C1C=C2O[C@@H]3OC4(CCCCC4)O[C@@H]3C2[C@H]2C(=O)C=CC(=O)[C@@]12C(=O)OC (stereo partly drawn)
3. CN(CC(=O)O)S(=O)(=O)c1ccc(Cl)cc1

RESULT:
4.07 µM (inactive)
12.4 µM (inactive)
> 100 µM (inactive)
